Reported PBM binding z-score by item:
# Tested on: PXR homodimer (NR concentration 270 nM)
# Assay method text: PBM binding z-score (relative to random genomic background probes); higher = stronger binding; sequences stand for … in GC…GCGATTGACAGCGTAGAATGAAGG

Worked examples, 5 sequences total:
| Chain sequence | PBM binding z-score |
| --- | --- |
| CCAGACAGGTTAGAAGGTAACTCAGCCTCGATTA | 0.257 |
| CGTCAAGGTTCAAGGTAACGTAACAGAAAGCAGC | 0.422 |
| ACTTACGGGTGAACGAGGTTATAGCACGCGTATA | 0.287 |
| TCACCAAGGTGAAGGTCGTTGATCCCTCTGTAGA | 0.00737 |
| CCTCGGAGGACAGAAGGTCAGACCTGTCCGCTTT | -0.272 |

Q) Report measured PBM binding z-score; entry is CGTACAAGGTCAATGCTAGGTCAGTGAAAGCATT
A) 2.03

Q) Report measured PBM binding z-score; entry is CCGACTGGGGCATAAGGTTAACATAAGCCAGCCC
A) -0.242

Q) Report measured PBM binding z-score; entry is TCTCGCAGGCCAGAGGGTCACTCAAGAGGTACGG
A) -0.348

Q) Report measured PBM binding z-score; entry is CGTACAAGGTCAGAGAGGTCAGTGAATGCCGAGT
A) 12.2

Q) Report measured PBM binding z-score; entry is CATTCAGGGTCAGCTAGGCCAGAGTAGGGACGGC
A) 0.0308
